// data source = patent US20240043403A1

testedSystem: human recombinant DGK ξ (Homo sapiens (Human))
Sequence (Q13574 whole entry): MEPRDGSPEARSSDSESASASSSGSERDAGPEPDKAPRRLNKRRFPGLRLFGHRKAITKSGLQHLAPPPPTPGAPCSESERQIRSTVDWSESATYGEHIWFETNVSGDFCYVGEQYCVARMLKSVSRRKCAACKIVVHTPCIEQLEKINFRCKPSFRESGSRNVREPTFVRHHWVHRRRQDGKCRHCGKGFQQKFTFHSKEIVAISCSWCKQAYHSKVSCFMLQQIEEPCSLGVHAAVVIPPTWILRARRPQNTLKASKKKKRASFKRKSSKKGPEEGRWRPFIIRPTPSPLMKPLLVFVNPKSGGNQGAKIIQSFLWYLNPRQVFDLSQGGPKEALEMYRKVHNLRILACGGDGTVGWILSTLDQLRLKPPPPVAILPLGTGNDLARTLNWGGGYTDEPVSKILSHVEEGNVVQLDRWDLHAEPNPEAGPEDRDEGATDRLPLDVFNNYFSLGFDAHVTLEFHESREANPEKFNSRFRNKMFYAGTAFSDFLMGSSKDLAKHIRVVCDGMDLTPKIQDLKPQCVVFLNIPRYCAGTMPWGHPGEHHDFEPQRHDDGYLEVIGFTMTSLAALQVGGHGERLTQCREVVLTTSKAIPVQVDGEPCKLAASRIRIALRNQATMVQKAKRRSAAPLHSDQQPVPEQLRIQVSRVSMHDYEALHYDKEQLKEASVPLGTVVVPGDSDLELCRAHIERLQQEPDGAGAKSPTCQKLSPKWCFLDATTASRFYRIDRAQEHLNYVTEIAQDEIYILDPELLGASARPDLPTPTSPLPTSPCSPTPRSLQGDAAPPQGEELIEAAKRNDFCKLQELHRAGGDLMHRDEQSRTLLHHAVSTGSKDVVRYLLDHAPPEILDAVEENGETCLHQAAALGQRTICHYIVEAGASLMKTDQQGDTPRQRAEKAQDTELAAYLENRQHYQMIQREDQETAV
procedureSummary: Evaluation of DGK ξ inhibitory effect (ADP-Glo Kinase Assay)
experimentalParameters: ADP-Glo luminescence
experimentalReadout: pIC50
// pIC50 is dimensionless: -log10 of concentration (M)

Study these solved cases before continuing.
Cc1ccccc1Oc1ccc(NC(=O)c2ccn(-c3ccnnc3)n2)c(N2CCC[C@@H](CN)C2)c1C(F)(F)F [Example 62]	8.16
CNC[C@H]1CN(c2c(NC(=O)c3ccn(-c4ccnnc4)n3)ccc(Oc3ccccc3F)c2C(F)(F)F)CCN1C [Example 29]	8.00
CN1CCN(c2c(NC(=O)c3ccn(-c4ccnnc4)n3)ccc(OC3CCCC3)c2C(F)(F)F)C[C@@H]1CN [Example 40]	8.28

query: Sample CN1CCN(c2c(NC(=O)c3ccn(CC(F)F)n3)ccc(Oc3ccccc3Cl)c2Cl)C[C@@H]1CN [Example 20] — what was its pIC50?
result: 7.70

query: Another molecule: CNC[C@H]1CN(c2c(NC(=O)c3ccn(CC(F)F)n3)ccc(Oc3ccccc3F)c2Cl)CCN1C [Example 27]
result: 7.43

query: Another molecule: N[C@@H]1CCN2CCN(c3c(NC(=O)c4coc(-c5ccnnc5)n4)ccc(OC4CCC4)c3C(F)(F)F)C[C@@H]12 [Example 75]
result: 7.16

query: Another molecule: O=C(Nc1ccc(Oc2ccccc2F)c(C(F)(F)F)c1N1CCC[C@@H](CNC2CC2)C1)c1ccn(-c2ccnnc2)n1 [Example 36]
result: 7.26

query: Another molecule: CNC[C@H]1CN(c2c(NC(=O)c3ccn(-c4ccnnc4)n3)ccc(Oc3ccccc3F)c2C(F)(F)F)CCN1C [Example 122]
result: 8.49

query: Another molecule: CN1CCN(c2c(NC(=O)c3ccn(-c4ccnnc4)n3)ccc(Oc3ccc(F)cc3)c2C(F)(F)F)C[C@@H]1CN [Example 52]
result: 7.34

query: Another molecule: NC[C@@H]1CCCN(c2c(NC(=O)c3ccn(CC(F)F)n3)ccc(Oc3ccc(F)cc3)c2C(F)(F)F)C1 [Example 8]
result: 7.06

query: Another molecule: CNC[C@@H]1CN(c2c(NC(=O)c3ccn(-c4ccnnc4)n3)ccc(Oc3ccccc3F)c2C(F)(F)F)CCN1C [Example 123]
result: 8.40

query: Another molecule: N[C@@H]1CCN2CCN(c3c(NC(=O)c4coc(-c5ccnnc5)n4)ccc(OC4CC4)c3C(F)(F)F)C[C@@H]12 [Example 81]
result: 6.96

query: Another molecule: CN1CCN(c2c(NC(=O)c3cccn(CC(F)F)c3=O)ccc(Oc3ccccc3F)c2C(F)(F)F)C[C@H]1CN [Example 21]
result: 5.96

query: Another molecule: CNC[C@H]1CN(c2c(NC(=O)c3ccn(-c4ccnnc4)n3)ccc(Oc3ccccc3F)c2C2CC2)CCN1C [Example 104]
result: 7.43

====

testedSystem: human recombinant DGK ξ (Homo sapiens (Human))
procedureSummary: Evaluation of DGK ξ inhibitory effect (ADP-Glo Kinase Assay)
experimentalParameters: ADP-Glo luminescence
Structures can show the parent of a compound that is named as a salt.
Kindly note that classification relies on IC50 with these boundaries: low value: < 20 nM; medium value: ≥ 20 nM and < 30 nM; high value: ≥ 30 nM

Field: example entries. Status: answers known.
CNC[C@H]1CN(c2c(NC(=O)c3coc(-c4ccnnc4)n3)ccc(Oc3ccccc3F)c2C(F)(F)F)CCN1C [Example 22, trihydrochloride]	low value
CNC[C@H]1CN(c2c(NC(=O)c3coc(-c4ccnnc4)n3)cc(F)c(Oc3ccccc3)c2F)CCN1C	low value
NCC1(F)CCCN(c2c(NC(=O)c3ccn(-c4ccnnc4)n3)ccc(Oc3ccccc3F)c2C(F)(F)F)C1 (stereo not drawn)	medium value
CN1CCN(c2c(NC(=O)c3ccn(CC(F)F)n3)ccc(Oc3ccccc3F)c2Cl)C[C@@H]1CN	high value
CNC[C@H]1CN(c2c(NC(=O)c3coc(-c4ccnnc4)n3)ccc(-c3ccccc3F)c2C(F)(F)F)CCN1C	medium value

query: Band assignment needed for NCCOc1cc(-c2c(NC(=O)c3coc(-c4ccnnc4)n3)ccc(OC3CCC3)c2C(F)(F)F)ccn1 please.
result: high value

query: Another compound: CNC[C@H]1CN(c2c(NC(=O)c3ccn(CC(F)F)n3)ccc(Oc3ccccc3Cl)c2C(F)(F)F)CCN1C
result: high value
